tested on: LPS induced IL-6 secretion from whole blood; assay: Measurement of LPS Induced IL-6 Secretion from Whole Blood; format: cell-based; conditions: IL-6 by immunoassay, LPS 200 ng/ml, 24 hours
pIC50: −log10 of the molar value. Counter-ions that a name gives are not always drawn.
endpoint_label: pIC50

Completed entries (count: 2):
[[record]]
molecule = "CC(=O)N1c2ccc(-c3ccc(C(=O)NCCN(C)C)cc3)cc2[C@H](Nc2ccccc2)C[C@@H]1C"
result = "5.50 to 7.30"

[[record]]
molecule = "CC(=O)N1c2ccc(-c3ccc(C(=O)NCCN(C)C)cn3)cc2[C@H](Nc2ccccn2)C[C@@H]1C"
result = "5.50 to 7.30"


Kindly state the measured pIC50 obtained for CC(=O)N1c2ccc(-c3ccc(C(=O)N4CCCC4)cc3)cc2[C@H](Nc2ccc(C)cn2)C[C@@H]1C [Example 68, formate] with LPS induced IL-6 secretion from whole blood.
5.50 to 7.30

Kindly state the measured pIC50 obtained for CC(=O)N1c2ccc(-c3ccc(C(=O)N4CCOCC4)cn3)cc2[C@H](Nc2cnccn2)C[C@@H]1C with LPS induced IL-6 secretion from whole blood.
5.50 to 7.30

Kindly state the measured pIC50 obtained for CC(=O)N1c2ccc(-c3ccc(C(=O)NCCO)cc3)cc2[C@H](Nc2ccc(C#N)cn2)C[C@@H]1C with LPS induced IL-6 secretion from whole blood.
5.50 to 7.30

Each recorded value in this set is attributed to patent US8993554B2.
